Attribution: patent US4657927A

tested on: Sarcoma 180; assay: Antitumor activity, solid sarcoma 180 tumor, T/C of tumor weights at day 10 (Table I); format: in vivo, female Swiss white mice; settings: 60 mg/kg, single i.p. injection day 1, solution in H2O
Measured Endpoint: No. of Deaths
Number, no unit, nothing else.

Q: I'd like to know its No. of Deaths. The compound in question is CC1C(=O)[O][Pt]([NH2])([NH2])[O]C1=O [Methylmalonatodiammineplatinum (II)]
A: 0

Q: Query: No. of Deaths; subject: CC1C(=O)[O][Pt]2([NH]CC[NH]2)[O]C1=O
A: 0

Q: Value lookup for No. of Deaths; key = CCC(C(=O)[O-])C(=O)[O-].N.N.[Pt+2] [ethylmalonatodiammineplatinum (II)]
A: 0

###

I'd be grateful if you could share measured No. of Deaths for these entries.
test system: Sarcoma 180; experiment: Antitumor activity, solid sarcoma 180 tumor, T/C of tumor weights at day 10 (Table I); format: in vivo, female Swiss white mice; settings: 50 mg/kg, single i.p. injection day 1, solution in H2O
Could you respond with only the numeric value?

Q: What No. of Deaths value was documented for this compound, CC1C(=O)[O][Pt]([NH2])([NH2])[O]C1=O ?
A: 0

Q: Item CCC(C(=O)[O-])C(=O)[O-].N.N.[Pt+2] has what recorded No. of Deaths?
A: 0

Q: I have this compound here, CC1C(=O)[O][Pt]2([NH]CC[NH]2)[O]C1=O , and I need its recorded No. of Deaths.
A: 0

Q: Fill blank: measured No. of Deaths of the compound NCCN.O=C([O-])CC(=O)[O-].[Pt+2] is ____.
A: 0

###

system: Sarcoma 180; assay: Antitumor activity, solid sarcoma 180 tumor, T/C of tumor weights at day 10 (Table I); assay type: in vivo, female Swiss white mice; details: dose level 60 (unit not given), single i.p. injection day 1
Measured Endpoint: No. of Deaths
API doc: respond with a numeric literal and nothing else, no unit.

Q: Endpoint output: No. of Deaths of NCCN.O=C([O-])CC(=O)[O-].[Pt+2] . Value?
A: 0

Q: Which measured No. of Deaths value corresponds to NCCCN.O=C([O-])CC(=O)[O-].[Pt+2] ?
A: 0

Q: Give its No. of Deaths value. Item: CC(N)CN.O=C([O-])CC(=O)[O-].[Pt+2]
A: 1

Q: Record request: No. of Deaths value, item CCC1C(=O)[O][Pt]2([NH]CC[NH]2)[O]C1=O
A: 0
